Hi there, I'd appreciate the recorded TGI for every entry that follows.
Test system: HS 578T breast
Experiment: NCI tumour cell line growth inhibition, 48 h

input: # value lookup — system HS 578T breast, readout TGI, item CCOC(=O)/C=C(\C(=O)OCC)n1cc(C)c(=O)n(Cc2cn(COCCOC(C)=O)nn2)c1=O
output: 46.1 µM

input: # value lookup — system HS 578T breast, readout TGI, item COc1cc(S(=O)(=O)Nc2ccc(-c3csc(/N=C\c4cccc(Oc5ccccc5)c4)n3)cc2)ccc1Cl
output: > 100 µM

input: # value lookup — system HS 578T breast, readout TGI, item Nc1nc(Cl)cc(NCC2(CO)CC=CC2)n1
output: > 100 µM

input: # value lookup — system HS 578T breast, readout TGI, item C/C(=N\NC(N)=S)C(CN1CCCCC1)C(C1=C(O)c2ccccc2OC1)c1ccccc1 (stereo unspecified)
output: > 100 µM

input: # value lookup — system HS 578T breast, readout TGI, item CCOC1Oc2ccccc2-c2nc(N)ncc21 (stereo unspecified)
output: > 100 µM

input: # value lookup — system HS 578T breast, readout TGI, item CCSc1nnc(-c2ccc3ccccc3c2O)n1-c1ccccc1
output: > 100 µM

input: # value lookup — system HS 578T breast, readout TGI, item Nc1ccc(Cc2ccc(N)c(C(=O)O)c2)cc1C(=O)O
output: > 100 µM

input: # value lookup — system HS 578T breast, readout TGI, item Oc1ccc(Cl)cc1C1=Nn2c(COc3ccc4c(c3)CCCC4)nnc2SC1
output: 30 µM

input: # value lookup — system HS 578T breast, readout TGI, item O=C(Cn1c2c(c3ccccc31)CCCC2)N1CCOCC1
output: > 100 µM

input: # value lookup — system HS 578T breast, readout TGI, item N#Cc1cc2c(=S)[nH]c(=S)[nH]c2nc1SCc1ccccc1
output: > 100 µM

input: # value lookup — system HS 578T breast, readout TGI, item CCCC(=O)Nc1cc(/C=C/C(=O)N2CC(CCl)c3c2cc(OC(C)=O)c2[nH]cc(C)c32)n(C)c1 (stereo unspecified)
output: 0.00193 µM

input: # value lookup — system HS 578T breast, readout TGI, item CNC(=O)OCC1=C(COC(=O)NC)CN(c2ccc(OC)cc2)C1
output: > 100 µM

input: # value lookup — system HS 578T breast, readout TGI, item CCCCSCCC(N)P(=O)(O)O (stereo unspecified)
output: > 100 µM

input: # value lookup — system HS 578T breast, readout TGI, item CN1CCN(c2ccc3nc(-c4ccc5nc(CCCc6ccc(N(CCCl)CCCl)cc6)[nH]c5c4)[nH]c3c2)CC1
output: > 100 µM

input: # value lookup — system HS 578T breast, readout TGI, item NCCNc1nc2ccc(F)cc2c2c(=O)c3cc(F)ccc3sc12
output: 18.4 µM

input: # value lookup — system HS 578T breast, readout TGI, item Cc1ccc([N+](=O)[O-])cc1S(=O)(=O)Nc1ccc(C2=NN(C(=O)c3ccccc3)C(c3ccccc3O)C2)cc1 (stereo unspecified)
output: > 100 µM

input: # value lookup — system HS 578T breast, readout TGI, item O=C1/C(=C/c2ccc([N+](=O)[O-])cc2)Sc2scc(-c3cccc([N+](=O)[O-])c3)[n+]21
output: 48.1 µM

input: # value lookup — system HS 578T breast, readout TGI, item Nc1nc(N)c2cc(S(=O)(=O)c3ccccc3)ccc2n1
output: > 100 µM

input: # value lookup — system HS 578T breast, readout TGI, item OCCCN=C1N=C(Cl)/C(=C\c2ccccc2)N1
output: > 100 µM

input: # value lookup — system HS 578T breast, readout TGI, item COc1ccc(/C=N/C2=NNC(C)(c3ccccc3O)N2C(Cc2c[nH]c3ccccc23)C(=O)O)cc1 (stereo unspecified)
output: 21.7 µM

input: # value lookup — system HS 578T breast, readout TGI, item CC(O)/C=C/C1OC(=O)CC1Nc1ccc(C=O)cc1 (stereo unspecified)
output: > 100 µM

====

System: HCT-15 colon
Assay: NCI tumour cell line growth inhibition, 48 h
readout: TGI

input: Report TGI for COc1cc(/C=C2\CC3C4CC[C@H]5C[C@@H](O)CC[C@]5(C)C4CC[C@]3(C)\C2=N\O)cc(OC)c1OC (stereo not given in full) please.
output: > 100 µM

input: Report TGI for Nc1ncc(-c2ccc3ncnc(N4CCc5cc(F)c(Cl)cc54)c3c2)cc1C(F)(F)F please.
output: > 100 µM

input: Report TGI for CC1=CC[C@@H]2C(=O)C=CC=C[C@H]12.[C-]#[O+].[C-]#[O+].[C-]#[O+].[Fe] please.
output: > 100 µM

input: Report TGI for CC(C)C(=O)CC(c1ccc(Br)cc1)N1N=C(C(C)C)CC1c1ccc(Br)cc1 (stereo not given) please.
output: > 100 µM

input: Report TGI for O=CCC(O)C(O)C(O)CO (stereo not given) please.
output: > 100 µM

input: Report TGI for COc1ccc2c3c([nH]c2c1)[C@H](C=C(C)C)N1C(=O)[C@@H]2CCCN2C(=O)[C@@H]1C3 please.
output: > 100 µM

input: Report TGI for CCOC(=O)COc1cc(-c2ccccc2)nc2cc(F)ccc12 please.
output: > 100 µM

input: Report TGI for CNC(=O)NCCCCC(NC(=O)OCc1ccccc1)C(=O)OCc1ccccc1 (stereo not given) please.
output: > 100 µM

input: Report TGI for Cc1ccc(S(=O)(=O)Nc2cc(=O)[nH]c3c2CCC3)cc1 please.
output: > 100 µM

input: Report TGI for O=C1c2ccccc2-c2c1c1ccc([N+](=O)[O-])cc1c(=O)n2CCN1CCOCC1 please.
output: > 100 µM

====

Tested on: NCI-H460 lung
Assay: NCI tumour cell line growth inhibition, 48 h
Hi there, I'd appreciate the recorded TGI for every entry that follows.

input: # value lookup — system NCI-H460 lung, readout TGI, item O=C(O)C(C(F)(F)F)C(F)(F)F (tested in a mixture with another compound)
output: > 100 µM

input: # value lookup — system NCI-H460 lung, readout TGI, item C=CCc1cccc(/C(O)=C/C(=O)/C=C/c2ccccc2Cl)c1O
output: > 100 µM

input: # value lookup — system NCI-H460 lung, readout TGI, item CN(CCCNC(=O)c1nn(-c2ccccc2)c2c1Cc1ccccc1-2)CCCNC(=O)c1nn(-c2ccccc2)c2c1Cc1ccccc1-2
output: 3.26 µM

input: # value lookup — system NCI-H460 lung, readout TGI, item NC(=S)N/N=C1/C(=O)N(c2ccccc2)C(=O)C1C(=O)Nc1ccccc1 (centres undefined)
output: > 100 µM

input: # value lookup — system NCI-H460 lung, readout TGI, item CCOC(=O)/C=C(\C(=O)OCC)n1cc(C)c(=O)n(Cc2cn(COCCOC(C)=O)nn2)c1=O
output: 30.2 µM

input: # value lookup — system NCI-H460 lung, readout TGI, item COc1ccc([C@H]2[C@@H]3CCc4ccccc4C3=NN2C(N)=S)cc1OC
output: > 100 µM

input: # value lookup — system NCI-H460 lung, readout TGI, item COc1ccc2cn3c4ccc(O)cc4[nH]c(=O)c3c2c1
output: 10.8 µM

input: # value lookup — system NCI-H460 lung, readout TGI, item Nc1nc(N)c2cc(S(=O)(=O)c3ccccc3)ccc2n1
output: > 100 µM

input: # value lookup — system NCI-H460 lung, readout TGI, item COc1cc2ccnc(-c3n[nH]c4cc(OC)c(OC)cc34)c2cc1OC
output: > 100 µM

====

Hi there, I'd appreciate the recorded TGI for every entry that follows.
Test system: EKVX NSCLC
Test: NCI tumour cell line growth inhibition, 48 h
Where a SMILES comes first, the peptide text is derived from it. [ ]: non-standard residue; d: D form. The star is where a group is joined. Hyp = O=C(O)[CH]1C[CH](O)CN1; Cbz = O=C(OCc1ccccc1)*

input: Report TGI for CC(C(=O)c1ccc(O)cc1)C1(O)C(=O)Nc2c(Cl)cc(Cl)cc21 (stereo not given) please.
output: > 100 µM

input: Report TGI for C=CCc1cccc(/C(O)=C/C(=O)/C=C/c2ccccc2Cl)c1O please.
output: > 100 µM

input: Report TGI for Cc1ccc(C2SCc3nc4ccccc4n32)cc1 (stereo not given) please.
output: > 100 µM

input: Report TGI for O=c1c2cc(Br)ccc2n(C2OC(CO)C(O)C(O)C2O)c(=S)n1-c1ccccc1 (stereo not given) please.
output: > 100 µM

input: Report TGI for CC(C)C1COC(C(C)(C)C2=N[C@@H](C(C)C)CO2)=N1 (stereo not given in full) please.
output: > 100 µM

input: Report TGI for Cc1cc(O)cc(-c2nn(C)cc2-c2cc(N3CCOCC3)nc(-c3cccnc3)n2)c1 please.
output: > 100 µM

input: Report TGI for NC(=O)CNC(=O)C1CC(O)CN1C(=O)C1CCCN1C(=O)OCc1ccccc1 (stereo not drawn) (Cbz-Pro-[Hyp]-Gly-NH2; configuration not given here) please.
output: > 100 µM

input: Report TGI for CC(C)C(=O)/C=C/c1ccc(Cl)cc1Cl please.
output: 31 µM

input: Report TGI for O=C1c2ccccc2-c2c1c1ccc3ccccc3c1n2-c1ccccc1 please.
output: > 100 µM

input: Report TGI for N#CC(C#N)[C@@H]1CCC=C(Sc2ccccc2)[C@H]1Sc1ccccc1 please.
output: 15.4 µM
